HepSE_hepatic failure listing for selected compounds.
- System: Hepatotoxicity; further: call rule not given here

1. Cc1nnc2n1-c1ccc(Cl)cc1C(c1ccccc1)=NC2 [ALPRAZOLAM]: 1

Q: Record request: HepSE_hepatic failure value, item C[C@H]1O[C@H](O[C@H]2[C@H](O)[C@@H](O)[C@@H](O[C@H]3[C@H](O)[C@@H](O)C(O)O[C@@H]3CO)O[C@@H]2CO)[C@H](O)[C@@H](O)[C@@H]1N[C@H]1C=C(CO)[C@@H](O)[C@H](O)[C@H]1O (some centres undefined) [ACARBOSE]
Result: 0

Q: Record request: HepSE_hepatic failure value, item CN(Cc1ccc(C(C)(C)C)cc1)Cc1cccc2ccccc12 [BUTENAFINE]
Result: 0

Q: Record request: HepSE_hepatic failure value, item CC(C(=O)O)c1cccc(Oc2ccccc2)c1 (centres undefined) [FENOPROFEN]
Result: 0
